B1: BBSome complex member BBS1 (Homo sapiens), Q8NFJ9 (parent)
chain: MAAASSSDSDACGAESNEANSKWLDAHYDPMANIHTFSACLALADLHGDGEYKLVVGDLGPGGQQPRLKVLKGPLVMTESPLPALPAAAATFLMEQHEPRTPALALASGPCVYVYKNLRPYFKFSLPQLPPNPLEQDLWNQAKEDRIDPLTLKEMLESIRETAEEPLSIQSLRFLQLELSEMEAFVNQHKSNSIKRQTVITTMTTLKKNLADEDAVSCLVLGTENKELLVLDPEAFTILAKMSLPSVPVFLEVSGQFDVEFRLAAACRNGNIYILRRDSKHPKYCIELSAQPVGLIRVHKVLVVGSTQDSLHGFTHKGKKLWTVQMPAAILTMNLLEQHSRGLQAVMAGLANGEVRIYRDKALLNVIHTPDAVTSLCFGRYGREDNTLIMTTRGGGLIIKILKRTAVFVEGGSEVGPPPAQAMKLNVPRKTRLYVDQTLREREAGTAMHRAFQTDLYLLRLRAARAYLQALESSLSPLSTTAREPLKLHAVVQGLGPTFKLTLHLQNTSTTRPVLGLLVCFLYNEALYSLPRAFFKVPLLVPGLNYPLETFVESLSNKGISDIIKVLVLREGQSAPLLSAHVNMPGSEGLAAA
partner: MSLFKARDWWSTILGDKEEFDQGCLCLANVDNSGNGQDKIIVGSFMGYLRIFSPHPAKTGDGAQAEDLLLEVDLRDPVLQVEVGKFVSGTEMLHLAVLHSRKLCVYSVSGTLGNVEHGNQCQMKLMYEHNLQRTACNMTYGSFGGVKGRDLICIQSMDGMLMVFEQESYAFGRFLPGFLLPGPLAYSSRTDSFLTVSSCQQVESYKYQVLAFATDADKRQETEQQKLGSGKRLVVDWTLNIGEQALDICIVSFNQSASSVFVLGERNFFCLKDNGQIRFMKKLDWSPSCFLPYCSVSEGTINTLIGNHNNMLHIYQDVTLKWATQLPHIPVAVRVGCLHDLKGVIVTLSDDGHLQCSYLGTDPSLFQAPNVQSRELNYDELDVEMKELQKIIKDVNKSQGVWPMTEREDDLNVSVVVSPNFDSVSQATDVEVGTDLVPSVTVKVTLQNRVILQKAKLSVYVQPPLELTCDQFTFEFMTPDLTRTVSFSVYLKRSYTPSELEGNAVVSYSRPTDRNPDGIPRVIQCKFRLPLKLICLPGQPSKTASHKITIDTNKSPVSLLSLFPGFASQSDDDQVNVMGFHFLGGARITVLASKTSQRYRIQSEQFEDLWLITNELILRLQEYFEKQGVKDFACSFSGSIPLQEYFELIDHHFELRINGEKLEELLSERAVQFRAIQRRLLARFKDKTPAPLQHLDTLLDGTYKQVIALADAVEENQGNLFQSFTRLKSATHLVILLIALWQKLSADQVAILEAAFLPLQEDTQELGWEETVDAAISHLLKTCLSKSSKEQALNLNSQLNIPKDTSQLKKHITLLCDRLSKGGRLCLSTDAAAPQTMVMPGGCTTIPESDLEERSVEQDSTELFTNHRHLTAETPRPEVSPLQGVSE

# Variants of: B1
# DETAILS: with pthb1_human BBS9, Q3SYG4
REPORTED_PROPERTY: effect of a mutation on the interaction

In the examples that follow, each entry is paired with its recorded effect of a mutation on the interaction.
# MUTATION_LIST, effect of a mutation on the interaction
rows = [
    ("S413K", "with no effect"),
    ("G589E", "with no effect"),
    ("S479E", "with no effect"),
    ("K487E", "with no effect"),
    ("L456E", "with no effect"),
]

# input Identify effect of a mutation on the interaction associated with the variant T498E
# output with no effect

# input Identify effect of a mutation on the interaction associated with the variant S561K
# output with no effect

# input Identify effect of a mutation on the interaction associated with the variant L471A
# output with no effect

# input Identify effect of a mutation on the interaction associated with the variant L590A
# output with no effect

# input Identify effect of a mutation on the interaction associated with the variant P513E
# output with no effect

# input Identify effect of a mutation on the interaction associated with the variant F452K
# output with no effect
